System: MV4;11 cells
EXPERIMENT NOTES: Cell viability assay (CellTiter-Glo) in MV4;11 cells, alone or with gilteritinib
Type: cell-based
CONDITION INFO: Homo sapiens, MV4-11, 72 h, MV4;11 cells, compound with gilteritinib 10 nM, three days, CellTiter-Glo; read-out: MV4; 11 IC50 gilteritinib
pIC50: −log10 of the molar value.
REPORTED ENDPOINT: pIC50

MOLECULE	pIC50
O=C1CCC(N2C(=O)c3ccc(NC[C@H]4C[C@H](n5nc(C6CC6)c6ncccc65)C4)cc3C2=O)C(=O)N1 (stereo partly shown) [GS-475]	< 6.00
Cc1cccc(-c2cnn([C@H]3C[C@H](CCCNc4ccc5c(c4)C(=O)N(C4CCC(=O)NC4=O)C5=O)C3)c2)n1 (stereo partly shown) [GS-584]	7.00 to 8.00
O=C1CCC(N2C(=O)c3ccc(NC[C@H]4C[C@H](n5nccc5C5CC5)C4)cc3C2=O)C(=O)N1 (stereo partly shown) [GS-590]	6.00 to 7.00
CN1CCN(c2ccnc(-c3cnn([C@H]4C[C@H](CNc5ccc6c(c5)C(=O)N(C5CCC(=O)NC5=O)C6=O)C4)c3)n2)CC1 (stereo partly shown) [GS-424]	< 6.00
O=C1CCC(N2C(=O)c3ccc(NC4CC(CCCn5cc(-c6cnc7ccccc7n6)cn5)C4)cc3C2=O)C(=O)N1 (stereo not shown) [GS-556]	< 6.00
O=C1CCC(N2Cc3ccc(NCCCCCn4cc(-c5cnc6ccccc6n5)cn4)cc3C2=O)C(=O)N1 (stereo not shown) [GS-519]	< 6.00

Q. For MV4;11 cells, provide pIC50 of O=C1CCC(N2C(=O)c3ccc(NCCCCCCn4cc(-c5cnc6ccc(C7CCOCC7)cc6n5)c(C5CC5)n4)cc3C2=O)C(=O)N1 (stereo not shown) [GS-571] please.
A. > 8.00
